Just for reference, patent US20250214966A1 is where these values come from.

test: Solubility in buffers, HPLC of mother liquors (Tables 12 and 13); format: physicochemical; conditions: pH 7 buffer, 25 °C, aqueous buffer, thermodynamic from solid; pH 7; Final pH 6.81; Final XRD Insufficient solids; read-out: Solubility Concentration
measurement_type: solubility at 25 h (µg/mL)

[[record]]
mol = "Nc1nccc(Sc2cnc(N3CCC4(CC3)Cc3ccccc3[C@H]4N)nn2)c1Cl"
value_reported = 17.1


###

Recorded solubility at 18 h, one value per entry.
Test: Solubility of salts in buffer systems at 37° C. (Table 14)
Type: physicochemical
Details: pH 6.8 phosphate buffer, aqueous buffer, thermodynamic from solid, pH 6.8 phosphate, 20 mg in 1 mL, read-out: Solubility Ph 6.8 Phosphate
Experimental: The solubility (Table 14) was determined by adding 20 mg of salts (Examples 3 to 8) into 3 HPLC vials, to each vial, a magnetic stirrer bar was added along with 1 mL of the appropriate buffer system (pH 1.2 HCl, pH 4.5 sodium acetate, or pH 6.8 phosphate). The samples were agitated at 37° C. for […]. After 24 hours, the slurries were isolated by centrifugation filtration and isolated mother liquors were analyzed by HPLC. […]
measurement_type: solubility at 18 h (µg/mL)

[[record]]
mol = "Nc1nccc(Sc2cnc(N3CCC4(CC3)Cc3ccccc3[C@H]4N)nn2)c1Cl.O=C(O)C(O)C(O)C(=O)O"
measurement_type = "solubility at 18 h"
units_symbol = "µg/mL"
value_reported = 1200

[[record]]
mol = "Nc1nccc(Sc2cnc(N3CCC4(CC3)Cc3ccccc3[C@H]4N)nn2)c1Cl"
measurement_type = "solubility at 18 h"
units_symbol = "µg/mL"
value_reported = 1300

[[record]]
mol = "Nc1nccc(Sc2cnc(N3CCC4(CC3)Cc3ccccc3[C@H]4N)nn2)c1Cl.O=C(O)/C=C/C(=O)O"
measurement_type = "solubility at 18 h"
units_symbol = "µg/mL"
value_reported = 400


###

assay: Solubility in buffers, HPLC of mother liquors (Tables 12 and 13); type: physicochemical; conditions: pH 4 acetate buffer, 25 °C, aqueous buffer, thermodynamic from solid; pH 4; Final pH 4.16; Final XRD Insufficient solids; read-out: Solubility Concentration
measurement_type: solubility at 25 h (µg/mL)

[[record]]
mol = "Nc1nccc(Sc2cnc(N3CCC4(CC3)Cc3ccccc3[C@H]4N)nn2)c1Cl"
measurement_type = "solubility at 25 h"
value_reported = 6400

